Assay: qHTS of pediatric cancer cell lines to identify multiple opportunities for drug repurposing: Primary screen for OHS-50 cells (AID 1347103); also: nearly all actives have a fitted effect of over 40% in size; also: potency is read from the fitted curve at half-maximal effect
Settings: OHS-50 osteosarcoma viability, CellTiter-Glo luminescence, 48 h; series mostly up to 57.3 µM
Experimental: Drug repurposing or repositioning has been offered as a strategy for drug development in oncology programs. […] [1] Shen, M et al. Quantitative high-throughput phenotypic screening of pediatric cancer cell lines identifies multiple opportunities for drug repurposing. […] Cells were assayed in growth media at a density of 500-1,000 cells/well. […] After a 15 min incubation at room temperature, samples were analyzed for luminescence intensity using a ViewLux High-throughput CCD imager equipped with clear filters.
Inconclusive results are not listed. Calls of active or inactive are those of the source. Calls follow the shape of the dose curve; as a rule, active = well fitted cell-killing curve with a large enough effect; inconclusive = small, poorly fitted or top-dose-only effect; inactive = no such curve, though single readings can be large or run the other way.
Attribute Measured: Potency

Compound	Potency
CC(C)CCCC(C)N (centres undefined)	inactive
CC1CCc2c(N3CCC(O)CC3)c(F)cc3c(=O)c(C(=O)O)cn1c23 (centres undefined)	inactive
Cc1cc(CC(=O)O)c(C)n1-c1ccc(Cl)cc1	inactive
COc1ccc(CN(CCN(C)C)c2ncccn2)cc1	inactive
Clc1cccc(C(c2ccc3nc[nH]c3c2)n2ccnc2)c1 (centres undefined)	inactive
COc1ccc(CCN(C)CCCN2CCc3cc(OC)c(OC)cc3CC2=O)cc1OC	inactive
OC[C@H]1O[C@@H]2O[C@H]3[C@H](O)[C@@H](O)[C@@H](O[C@H]4[C@H](O)[C@@H](O)[C@@H](O[C@H]5[C@H](O)[C@@H](O)[C@@H](O[C@H]6[C@H](O)[C@@H](O)[C@@H](O[C@H]7[C@H](O)[C@@H](O)[C@@H](O[C@H]8[C@H](O)[C@@H](O)[C@@H](O[C@H]1[C@H](O)[C@H]2O)O[C@@H]8CO)O[C@@H]7CO)O[C@@H]6CO)O[C@@H]5CO)O[C@@H]4CO)O[C@@H]3CO	inactive
O=C(Nc1ccc([N+](=O)[O-])cc1)Nc1ccc([N+](=O)[O-])cc1	inactive

Report Potency for `CC(=O)O[C@H]1C[C@@H]2CC[C@@H]3[C@H](CC[C@@]4(C)[C@H]3C[C@H]([N+]3(C)CCCCC3)[C@@H]4OC(C)=O)[C@@]2(C)C[C@@H]1N1CCCCC1` please.
inactive

Report Potency for CC(C)NCC(O)c1ccc2ccccc2c1 (centres undefined) please.
inactive

Report Potency for `CCN(CC)CCNc1ccc(CO)c2sc3ccccc3c(=O)c12` please.
24.6 µM (active)

Report Potency for `CN1CCN(c2c(F)cc3c(=O)c(C(=O)O)cn4c3c2SCC4)CC1` please.
inactive

Report Potency for `CCCCCN=C(N)N/N=C/c1c[nH]c2ccc(OC)cc12` please.
11 µM (active)

Report Potency for `CC[C@H](c1ccc(O)cc1)[C@@H](CC)c1ccc(O)cc1` please.
27.6 µM (active)
